Recorded pKd by entry
- target_desc: T1, KDM4A double tudor domain (KDM4A-DTD), HaloTag-tagged, wild type (human, UniProt O75164 895-1011)
- T1 chain: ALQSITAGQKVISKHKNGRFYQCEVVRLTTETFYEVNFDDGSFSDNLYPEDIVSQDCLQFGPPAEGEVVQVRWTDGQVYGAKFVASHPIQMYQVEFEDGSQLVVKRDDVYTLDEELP
- test_method_notes: FP
pKd: −log10 of the molar value. No end group written: not given here.
property_label: pKd

>>> test_value("ARTK(Me3)QTARKSTGGK (also: fluorescein label, end not given here) [H3K4me3 peptide, fluorescein-labelled]")
5.57
>>> test_value("ARKSTGGK(Me3)APRKQLATK (also: fluorescein label, end not given here) [H3K14me3 peptide, fluorescein-labelled]")
3.96
